tested on: Salmonella enterica serovar Typhimurium SL1344; assay: normalized intracellular growth (luminescence, IQM-normalized) in RAW264.7 macrophages (fraction of plate interquartile mean); higher = more bacterial growth (less inhibition); settings: 10 µM, time point: T3 (3 h)
The full ranking holds about 1,600 compounds; the median of “normalized intracellular growth (luminescence, IQM-normalized) in RAW264.7 macrophages” is about 1, and the lowest 2% start at about 0.43. The entries come from a sample that favours the lowest values as a whole.
observed-property: normalized intracellular growth
The reply should be a number, written without any unit.

CCCCCCCCCc1ccc(OCCOCCOCCOCCOCCOCCOCCOCCOCCO)cc1	0.99
CCCCCCCCCCC[C@@H](C[C@@H]1OC(=O)[C@H]1CCCCCC)OC(=O)[C@H](CC(C)C)NC=O	0.987
CC[C@H]1OC(=O)[C@H](C)[C@@H](O[C@H]2C[C@@](C)(OC)[C@@H](O)[C@H](C)O2)[C@H](C)[C@@H](O[C@@H]2O[C@H](C)C[C@H](N(C)C)[C@H]2O)[C@](C)(O)C[C@@H](C)CN(C)[C@H](C)[C@@H](O)[C@]1(C)O	1.05
COc1ccc(C(=O)c2ccccc2)c(O)c1	0.948

## Input Return the recorded normalized intracellular growth value; entry: O=c1[nH]c(=O)n([C@H]2C[C@H](O)[C@@H](CO)O2)cc1F
## Output 0.699

----------
Listing of recorded normalized intracellular growth by entry.
test system: Salmonella enterica serovar Typhimurium SL1344; assay: normalized intracellular growth (luminescence, IQM-normalized) in RAW264.7 macrophages (fraction of plate interquartile mean); higher = more bacterial growth (less inhibition); conditions: 10 µM, time point: T3 (3 h)
In all, about 1,600 compounds were measured (“normalized intracellular growth (luminescence, IQM-normalized) in RAW264.7 macrophages”: median about 1, lowest 2% from about 0.43 on). The sample holds the lowest values, similar compounds and a random draw of the others, so the mix is not that of the screen.
The reply should be a number, written without any unit.

Please review the entries below; each comes with its answer.
Nc1ncn([C@@H]2O[C@H](CO)[C@@H](O)[C@H]2O)c(=O)n1	0.951
O=c1[nH]cnc2c1ncn2[C@@H]1O[C@H](CO)[C@@H](O)[C@H]1O	0.917
C[C@H]1[C@H](OC(=O)CCC(=O)O)O[C@@H]2O[C@@]3(C)CC[C@H]4[C@H](C)CC[C@@H]1[C@@]24OO3	0.899

## Input Return the recorded normalized intracellular growth value; entry: Cc1nccnc1N1CCCCC1
## Output 1.09

## Input Return the recorded normalized intracellular growth value; entry: O=C(O)CN1C(=O)c2cccc3cccc(c23)C1=O
## Output 0.914

## Input Return the recorded normalized intracellular growth value; entry: O=C(O)C1=C(CSc2nnnn2CS(=O)(=O)O)CS[C@@H]2[C@H](NC(=O)[C@H](O)c3ccccc3)C(=O)N12
## Output 0.979

## Input Return the recorded normalized intracellular growth value; entry: OCC(S)CS (configuration not stated)
## Output 0.927

## Input Return the recorded normalized intracellular growth value; entry: CNC(=O)c1c(I)c(NC(C)=O)c(I)c(C(=O)O)c1I
## Output 1.01

## Input Return the recorded normalized intracellular growth value; entry: O=C(O)/C=C/C(=O)O
## Output 1.14

## Input Return the recorded normalized intracellular growth value; entry: NCCC[C@H](N)C(=O)O
## Output 0.972

## Input Return the recorded normalized intracellular growth value; entry: O=C(NCc1ccccc1)OCCO
## Output 1.24

## Input Return the recorded normalized intracellular growth value; entry: CCN(CC)CCOc1ccc2c(c1)C(=O)c1cc(OCCN(CC)CC)ccc1-2
## Output 1

----------
test system: Salmonella enterica serovar Typhimurium SL1344; assay: normalized intracellular growth (luminescence, IQM-normalized) in RAW264.7 macrophages (fraction of plate interquartile mean); higher = more bacterial growth (less inhibition); conditions: 10 µM, time point: Tfinal (~6 h)
The full ranking holds about 1,600 compounds; the median of “normalized intracellular growth (luminescence, IQM-normalized) in RAW264.7 macrophages” is about 1, and the lowest 2% start at about 0.43. This is one part of a sample in which the lowest values are shown more often than they occur.
observed-property: normalized intracellular growth

Please review the entries below; each comes with its answer.
CC1=C(C(=O)O)N2C(=O)[C@@H](NC(=O)[C@H](N)c3ccc(O)cc3)[C@H]2SC1	0.831
Cn1nnnc1SCC1=C(C(=O)O)N2C(=O)[C@@H](NC(=O)[C@H](OC=O)c3ccccc3)[C@H]2SC1	0.979
CO/N=C(\C(=O)N[C@@H]1C(=O)N2C(C(=O)OC(C)OC(C)=O)=C(COC(N)=O)CS[C@H]12)c1ccco1 (stereo partly drawn)	0.977
N[C@@H](CCC(=O)N[C@@H](CS)C(=O)NCC(=O)O)C(=O)O	0.832
CO/N=C(\C(=O)N[C@@H]1C(=O)N2C(C(=O)O)=C(COC(N)=O)CS[C@H]12)c1ccco1	0.732
CO/N=C(\C(=O)N[C@@H]1C(=O)N2C(C(=O)O)=C(CSC(=O)c3ccco3)CS[C@H]12)c1csc(N)n1	0.0233

## Input Return the recorded normalized intracellular growth value; entry: C[N+](C)(C)CC(O)CC(=O)[O-] (stereo not drawn)
## Output 0.91

## Input Return the recorded normalized intracellular growth value; entry: CO/N=C1\C[C@]2(C[C@@H]3C[C@@H](C/C=C(\C)C[C@@H](C)/C=C/C=C4\CO[C@@H]5[C@H](O)C(C)=C[C@@H](C(=O)O3)[C@]45O)O2)O[C@H](/C(C)=C/C(C)C)[C@H]1C
## Output 0.831

----------
test system: Salmonella enterica serovar Typhimurium SL1344; assay: normalized intracellular growth (luminescence, IQM-normalized) in RAW264.7 macrophages (fraction of plate interquartile mean); higher = more bacterial growth (less inhibition); conditions: 10 µM, time point: Tfinal (~6 h)
Whole data set: some 1,600 compounds, median “normalized intracellular growth (luminescence, IQM-normalized) in RAW264.7 macrophages” near 1, cut for the lowest 2% near 0.43. For the sample, the lowest values were picked, then their nearest neighbours and some compounds at random.
observed-property: normalized intracellular growth

Please review the entries below; each comes with its answer.
NC(=O)C1(N2CCCCC2)CCN(CCCC(=O)c2ccc(F)cc2)CC1	0.965
O=C(NCc1ccccc1)OCCO	1.33
O=C([O-])C(O)[C@H](O)[C@@H](O)[C@H](O)[C@H](O)CO.O=C([O-])C(O)[C@H](O)[C@@H](O)[C@H](O)[C@H](O)CO.[Ca+2] (some centres undefined)	1.06
O=C1c2ccccc2C(=O)C1c1ccc(Br)cc1	1.15
CCCCCCCCCCOc1cc2c(O)c(C(=O)OCC)cnc2cc1OCC	0.973
O=C(CCCN1CCC(O)(c2ccc(Br)cc2)CC1)c1ccc(F)cc1	1.28
CCCCC1=NC2(CCCC2)C(=O)N1Cc1ccc(-c2ccccc2-c2nnn[nH]2)cc1	1.14
CN1CC(=O)N2[C@H](c3ccc4c(c3)OCO4)c3[nH]c4ccccc4c3C[C@@H]2C1=O	0.783
O=C1C2CC3CC1CC(O)(C3)C2	1.06
CN(C)c1ccc(C(=C2C=CC(=[N+](C)C)C=C2)c2ccc(N(C)C)cc2)cc1	0.931

## Input Return the recorded normalized intracellular growth value; entry: Cc1cc(C(C)(C)C)c(O)c(C(C)(C)C)c1
## Output 0.834

## Input Return the recorded normalized intracellular growth value; entry: CC(=O)NCCCCCC(=O)O
## Output 1.02

## Input Return the recorded normalized intracellular growth value; entry: COC(=O)N/N=C/c1c[n+]([O-])c2ccccc2[n+]1[O-]
## Output 0.309

## Input Return the recorded normalized intracellular growth value; entry: CC(C)(CO)[C@@H](O)C(=O)NCCC(=O)NCCSSCCNC(=O)CCNC(=O)[C@H](O)C(C)(C)CO
## Output 0.976

## Input Return the recorded normalized intracellular growth value; entry: CCCc1nc(C(C)(C)O)c(C(=O)OCc2oc(=O)oc2C)n1Cc1ccc(-c2ccccc2-c2nnn[nH]2)cc1
## Output 0.855

## Input Return the recorded normalized intracellular growth value; entry: CCOc1nc2cccc(C(=O)O)c2n1Cc1ccc(-c2ccccc2-c2nnn[nH]2)cc1
## Output 1.04

## Input Return the recorded normalized intracellular growth value; entry: CC12CCC(CC1)C(C)(C)O2
## Output 0.96

## Input Return the recorded normalized intracellular growth value; entry: CCCc1nc(C(C)(C)O)c(C(=O)O)n1Cc1ccc(-c2ccccc2-c2nnn[nH]2)cc1
## Output 1.12

## Input Return the recorded normalized intracellular growth value; entry: CCCCC(=O)N(Cc1ccc(-c2ccccc2-c2nnn[nH]2)cc1)[C@H](C(=O)O)C(C)C
## Output 0.239

----------
system: Salmonella enterica serovar Typhimurium SL1344; assay: normalized intracellular growth (luminescence, IQM-normalized) in RAW264.7 macrophages (fraction of plate interquartile mean); higher = more bacterial growth (less inhibition); details: 10 µM, time point: T3 (3 h)
In all, about 1,600 compounds were measured (“normalized intracellular growth (luminescence, IQM-normalized) in RAW264.7 macrophages”: median about 1, lowest 2% from about 0.43 on). The sample as a whole holds a higher share of the lowest values than the screen did.
observed-property: normalized intracellular growth
The reply should be a number, written without any unit.

Please review the entries below; each comes with its answer.
CCCCC1=NC2(CCCC2)C(=O)N1Cc1ccc(-c2ccccc2-c2nnn[nH]2)cc1	1.06
NCC(O)CC(=O)O (stereo not given)	0.966
Cl.N=C(N)NCCC[C@H](N)C(=O)O	1.05

## Input Return the recorded normalized intracellular growth value; entry: Nc1ccc(S(N)(=O)=O)cc1
## Output 0.967

## Input Return the recorded normalized intracellular growth value; entry: C=CCCCCCCCCC(=O)[O-].C=CCCCCCCCCC(=O)[O-].[Zn+2]
## Output 1

## Input Return the recorded normalized intracellular growth value; entry: CCOc1nc2cccc(C(=O)O)c2n1Cc1ccc(-c2ccccc2-c2nnn[nH]2)cc1
## Output 0.992
